Target: Hexose transporter 1 (Plasmodium falciparum) (UniProt O97467)
Test: ST_JUDE_LEISH: Cytotoxicity at 2uM final concentration against transgenic Leishmania Mexicana promastigotes LmPfHT that are glucose transport deficient and complemented with the Plasmodium falciparum hexose transporter. Activity is measured by DNA content using SYBR green in vitro
Format: functional
Rule: inhibition under 4% gives 0.0, otherwise 1.0.

-- ask Form field: inhibition at least 4%? Entry: CN(C)CCNC(=O)c1ccc(-c2ccc3c(Nc4ccccc4)c(C(N)=O)cnc3c2)cc1
-- reply 0.0

-- ask Form field: inhibition at least 4%? Entry: COc1ccc(CNCc2ccc(F)cc2)cc1-c1ccc(S(=O)(=O)NCCN2CCCC2)s1
-- reply 0.0

-- ask Form field: inhibition at least 4%? Entry: COc1ccc2nccc([C@@H](O)CN3CCC(NCCOc4cccc(F)c4F)CC3)c2c1
-- reply 1.0

-- ask Form field: inhibition at least 4%? Entry: CC(=O)Nc1ccc(CN2CCCN(c3cc(NC(=O)c4cccc(C)c4)ccn3)CC2)cc1
-- reply 1.0

-- ask Form field: inhibition at least 4%? Entry: N=c1sc2ccccc2n1CC(O)c1ccc(Cl)c(Cl)c1 (stereo not given)
-- reply 0.0

-- ask Form field: inhibition at least 4%? Entry: Nc1ncc(-c2ccc(F)c(Cl)c2)c(N)n1
-- reply 1.0

-- ask Form field: inhibition at least 4%? Entry: COc1ccc2nccc([C@@H](O)CN3CCC(NCc4cc5cc(C)ccc5s4)CC3)c2c1
-- reply 1.0

-- ask Form field: inhibition at least 4%? Entry: CCN(CC)CCCC(C)Nc1c(-c2ccc(C)cc2)cnc2ccccc12 (stereo not given)
-- reply 1.0

-- ask Form field: inhibition at least 4%? Entry: Cc1cc(-c2ccc(CNCCc3cccs3)cc2)ccc1S(=O)(=O)NCc1ccccc1
-- reply 1.0
